// each record: one item and its IC50 for Cytochrome P450 2D6 (Homo sapiens, UniProt P10635)

As a guide, the following entries are already answered.
{"sampleSmiles": "CCNC1=N[C@@H]2C[C@H](O)[C@@H](CO)O[C@@H]2S1", "targetDesc": "Cytochrome P450 2D6 (Homo sapiens, UniProt P10635)", "result": "> 50 µM"}
{"sampleSmiles": "CCNC1=N[C@@H]2[C@@H](O)[C@H](OC)[C@@H](CO)O[C@@H]2S1", "targetDesc": "Cytochrome P450 2D6 (Homo sapiens, UniProt P10635)", "result": "> 50 µM"}
{"sampleSmiles": "CCNC1=N[C@@H]2[C@@H](O)[C@H](O)[C@@H](COC)O[C@@H]2S1", "targetDesc": "Cytochrome P450 2D6 (Homo sapiens, UniProt P10635)", "result": "> 50 µM"}

Field: next compound
Query block: # query: IC50 of entry "CCNC1=N[C@H]2[C@H](O[C@H](CO)C[C@@H]2O)S1"
Result block: > 50 µM

---

- Test system: MDR1
- procedureSummary: Apparent permeability in pig LLC-PK1 cells transfected with MDR1
- Type: ADME, cell-based, Sus scrofa
measurementKind: Papp (×10⁻⁶ cm/s)
Answers are plain numbers, in ×10⁻⁶ cm/s.

As a guide, the following entries are already answered.
{"sampleSmiles": "NC1=N[C@@H]2[C@@H](O)[C@H](O)[C@@H](C(F)F)O[C@@H]2S1", "measurementKind": "Papp", "quantitativeReadout": 9.2}
{"sampleSmiles": "CNC1=N[C@@H]2[C@H](F)[C@H](O)[C@@H](C(F)F)O[C@@H]2S1", "measurementKind": "Papp", "quantitativeReadout": 20}
{"sampleSmiles": "CNC1=N[C@@H]2C[C@H](O)[C@@H](C(F)F)O[C@@H]2S1", "measurementKind": "Papp", "quantitativeReadout": 24}

For each entry beneath this line, provide reported Papp.
1. CNC1=N[C@@H]2[C@@H](O)[C@H](O)[C@@H](C(F)F)O[C@@H]2S1
2. CNC1=N[C@@H]2[C@H](F)[C@H](O)[C@@H](CF)O[C@@H]2S1
3. CCNC1=N[C@@H]2C[C@H](O)[C@@H](CO)O[C@@H]2S1
4. CCN(C)C1=N[C@@H]2[C@@H](O)[C@H](O)[C@@H](CO)O[C@@H]2S1

Result block:
1. 5.7
2. 26
3. 2.6
4. 1.1

For each entry beneath this line, provide reported Papp.
1. O[C@H]1[C@H](O)[C@@H](C(F)F)O[C@@H]2SC(N3CCC3)=N[C@H]12
2. CCCNC1=N[C@@H]2[C@@H](O)[C@H](O)[C@@H](CF)O[C@@H]2S1
3. CN(C)C1=N[C@@H]2[C@@H](O)[C@H](O)[C@@H](C(F)F)O[C@@H]2S1
4. CCNC1=N[C@@H]2[C@@H](F)[C@H](O)[C@@H](CO)O[C@@H]2S1
5. CCNC1=N[C@H]2[C@H](O[C@H](CO)C[C@@H]2O)S1
6. CN(C)C1=N[C@@H]2C[C@H](O)[C@@H](C(F)F)O[C@@H]2S1
7. CNC1=N[C@@H]2[C@@H](F)[C@H](O)[C@@H](C(F)F)O[C@@H]2S1

Result block:
18
17
14
2.7
7
31
22

Query block: # query: Papp of entry "CCNC1=N[C@@H]2[C@@H](O)[C@H](O)[C@@H](C(F)F)O[C@@H]2S1"
Result block: 6.4
